- Assay Comment: chemical genetic growth profiling, strain panel (AID 1159580);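 also: tested at 20 µM; growth read once vehicle control cultures reached saturation at 30 °C; 1 = growth at the plate median or of vehicle wells; lower values mean less growth of the strain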
- Assay Conditions: S. cerevisiae deletion strains, growth OD, locus YJL095W, strain BCK1 (second series), stronger effect = lower value
Out of some 5,500 compounds screened, about 2,000 (36%) were called active. Roughly 18% stayed inconclusive and do not appear here. The list shows a part of the results.
Metric Name: normalized growth

{"Compound": "C=CC1=C(C(=O)O)N2C(=O)[C@@H](NC(=O)/C(=N/O)c3csc(N)n3)[C@H]2SC1", "Metric Name": "normalized growth", "Observed Value": 1.01}
{"Compound": "O=c1ccc2ccccc2o1", "Metric Name": "normalized growth", "Observed Value": 0.978}
{"Compound": "CC(C)CC1C(=O)N2CCC[C@H]2C2(O)O[C@](NC(=O)C3C=C4c5cccc6[nH]c(Br)c(c56)C[C@H]4N(C)C3)(C(C)C)C(=O)N12 (stereo partly specified)", "Metric Name": "normalized growth", "Observed Value": 0.999}
{"Compound": "C[N+](C)(C)CCOP(=O)([O-])OP(=O)(O)OC[C@H]1OC(n2ccc(N)nc2=O)[C@H](O)[C@@H]1O (stereo partly specified)", "Metric Name": "normalized growth", "Observed Value": 0.99}
{"Compound": "O=C(O)C1CC([C@@H]2CCCCN2)CN2CCCCC12 (stereo partly specified)", "Metric Name": "normalized growth", "Observed Value": 1}
{"Compound": "NC(N)=Nc1nc(CSCCC(N)=NS(N)(=O)=O)cs1", "Metric Name": "normalized growth", "Observed Value": 0.993}
{"Compound": "CC(C)N(C(=O)CCl)c1ccccc1", "Metric Name": "normalized growth", "Observed Value": 1.01}
{"Compound": "CC(=O)O[C@H]1C(=O)[C@@]2(C)C([C@H](OC(=O)c3ccccc3)[C@]3(O)C[C@H](O)C(C)=C1C3(C)C)[C@]1(OC(C)=O)CO[C@@H]1C[C@@H]2O (stereo partly specified)", "Metric Name": "normalized growth", "Observed Value": 0.995}
{"Compound": "COc1ccc2cc1Oc1ccc(cc1)C[C@H]1c3cc(c(OC)cc3CCN1C)Oc1c(OC)c(OC)cc3c1[C@H](C2)N(C)CC3", "Metric Name": "normalized growth", "Observed Value": 1.02}
{"Compound": "COC1C(O)C(O)C(O)[C@@H](O)C1O (stereo partly specified)", "Metric Name": "normalized growth", "Observed Value": 0.975}
{"Compound": "COc1cc2c(cc1OC)C(=O)C(CC1CCN(Cc3ccccc3)CC1)C2 (stereo unspecified)", "Metric Name": "normalized growth", "Observed Value": 0.994}
{"Compound": "CN1C2CC3C[C@H]1C(O3)C2O (stereo partly specified)", "Metric Name": "normalized growth", "Observed Value": 0.985}
{"Compound": "CCSC(=N)N", "Metric Name": "normalized growth", "Observed Value": 1.01}
{"Compound": "CNC1(C)C2CCC(C2)C1(C)C (stereo unspecified)", "Metric Name": "normalized growth", "Observed Value": 0.996}
{"Compound": "COc1ccc([C@@H]2CC(=O)c3c(O)cc(O)cc3O2)cc1O", "Metric Name": "normalized growth", "Observed Value": 0.978}
{"Compound": "CC(C)[N+](C)(CCOC(=O)C1c2ccccc2Oc2ccccc21)C(C)C", "Metric Name": "normalized growth", "Observed Value": 1.01}
{"Compound": "CN=C(NC#N)NCCSCc1nc[nH]c1C", "Metric Name": "normalized growth", "Observed Value": 0.996}
{"Compound": "Cc1ccc2c(c1)CC[C@H]1CC(=O)CC[C@]21C", "Metric Name": "normalized growth", "Observed Value": 1.01}
{"Compound": "CC(C(=O)O)c1ccc2c(c1)[nH]c1ccc(Cl)cc12 (stereo unspecified)", "Metric Name": "normalized growth", "Observed Value": 0.988}
{"Compound": "COC(=O)C1=COC(OC2OC(CO)C(O)C(O)C2O)C2C(C)CC(=O)C12O (stereo unspecified)", "Metric Name": "normalized growth", "Observed Value": 0.982}
{"Compound": "CC(=O)OCC(CCn1cnc2cnc(N)nc21)COC(C)=O", "Metric Name": "normalized growth", "Observed Value": 0.987}
